Sourced from ChEMBL document CHEMBL1136661

target: Human immunodeficiency virus type 1 integrase (Human immunodeficiency virus 1, UniProt Q7ZJM1); test: Inhibitory activity of compound against HIV-1 integrase
Sequence (Q7ZJM1 whole entry): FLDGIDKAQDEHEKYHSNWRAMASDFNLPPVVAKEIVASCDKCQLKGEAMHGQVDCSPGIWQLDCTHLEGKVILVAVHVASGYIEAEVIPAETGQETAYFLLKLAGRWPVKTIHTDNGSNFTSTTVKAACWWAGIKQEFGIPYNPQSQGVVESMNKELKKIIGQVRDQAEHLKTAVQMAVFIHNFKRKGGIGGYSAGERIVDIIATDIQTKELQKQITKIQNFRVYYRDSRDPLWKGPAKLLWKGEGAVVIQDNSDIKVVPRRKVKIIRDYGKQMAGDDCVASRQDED
pIC50: −log10 of the molar value.
PROPERTY LABEL: pIC50

INSERT INTO assay_data (substance, comparative_sign, reported_result) VALUES
  ('H-AGERIVDIIATDIQ-NH2', '=', 5.70),
  ('H-QETAYFLLKLAGR-NH2', '=', 3.82),
  ('H-STTVKAASWWA-NH2', '<', 3.00),
  ('H-GYIEAEVI-NH2', '<', 3.00),
  ('H-HLKTAVQMAVFIHNFKR-NH2', '=', 5.52),
  ('H-QETAYFLLKLAGRWP-NH2', '=', 4.46);
